Assay: Acute toxicity (LD50) in mice
Conditions: mouse, in vivo, ip
measuredProperty: LD50 (mg/kg)

[[record]]
compound = "Cc1cc2ccc(=O)oc2c2c(C)coc12"
measurement = 750

[[record]]
compound = "COc1c2occc2cc2ccc(=O)oc12 [8-MOP, 8-methoxypsoralen, reference compound]"
measurement = 300


* * *

Below, each entry is listed with its recorded no of mutants per 10^6 survivors.
System: E. coli WP2-uvr A
Type: cell-based
Settings: UV-A irradiation time 30 seconds
measuredProperty: no of mutants per 10^6 survivors

[[record]]
molecule = "Cc1cc2c(o1)c(C)cc1c(C)cc(=O)oc12"
measuredproperty = "no of mutants per 10^6 survivors"
measurement = "1.23 mutants per 10^6 survivors"

[[record]]
molecule = "Cc1cc(=O)oc2c1cc(C)c1occ(C)c12"
measuredproperty = "no of mutants per 10^6 survivors"
measurement = "1.24 mutants per 10^6 survivors"

[[record]]
molecule = "Cc1cc(=O)oc2c1cc(C)c1occc12"
measuredproperty = "no of mutants per 10^6 survivors"
measurement = "0.99 mutants per 10^6 survivors"

[[record]]
molecule = "COc1c2occc2cc2ccc(=O)oc12 [8-MOP, 8-methoxypsoralen, reference compound]"
measuredproperty = "no of mutants per 10^6 survivors"
measurement = "1.5 mutants per 10^6 survivors"

[[record]]
molecule = "Cc1cc2ccc(=O)oc2c2c(C)coc12"
measuredproperty = "no of mutants per 10^6 survivors"
measurement = "2.63 mutants per 10^6 survivors"

